Data credit: patent US20250326813A1

- assay-target: T1, human IL2Rβ Fc fusion protein (human, UniProt P14784 27-239)
- T1 construct: also called ILR2β; CD122; not shown: Fc part
- T1 sequence (looked up): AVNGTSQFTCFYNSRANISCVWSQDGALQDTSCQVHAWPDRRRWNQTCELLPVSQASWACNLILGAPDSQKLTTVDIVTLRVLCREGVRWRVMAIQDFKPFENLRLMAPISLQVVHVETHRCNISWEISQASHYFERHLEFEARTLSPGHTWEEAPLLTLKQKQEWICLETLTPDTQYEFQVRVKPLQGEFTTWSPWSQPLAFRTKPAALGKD
- test: ELISA, single concentration, anti-flag detection, E. coli-produced clone
// OD450 nm lookup, one value per entry
measurement-kind: OD450 nm (OD450)

{"columns": ["binder", "unit-abbreviation", "numeric-readout"],
 "data": [
  ["EP575 (clone 2021EP16-D09), E. coli-produced (ligand) APASSSTKKTQLQLEHLLLDLQMILNGINNYKNPKLTRMLTFKFYMPKKATELKHLQCLEEELKPLEEVLNLAQSKNFHLRNKGILGDISNIVLALKGSETTFMCEYADETATIVEFLNRWITFSQSIISTLT", "OD450", 0.057],
  ["EP581 (clone 2021EP16-C10), E. coli-produced (ligand) APASSSTKKTQLQLEHLLLDLQMILNGINNYKNPKLTRMLTFKFYMPKKATELKHLQCLEEELKPLEEVLNLAQSKNFHLRSREVVSRIDAIILELKGSETTFMCEYADETATIVEFLNRWITFSQSIISTLT", "OD450", 0.127],
  ["EP582 (clone 2021EP16-G10), E. coli-produced (ligand) APASSSTKKTQLQLEHLLLDLQMILNGINNYKNPKLTRMLTFKFYMPKKATELKHLQCLEEELKPLEEVLNLAQSKNFHLTHRDVISDVNVLALELKGSETTFMCEYADETATIVEFLNRWITFSQSIISTLT", "OD450", 0.337],
  ["EP586 (clone 2021EP16-E07), E. coli-produced (ligand) APASSSTKKTQLQLEHLLLDLQMILNGINNYKNPKLTRMLTFKFYMPKKATELKHLQCLEEELKPLEEVLNLAQSKNFHLRPRDSRRLISVIVFRLKGSETTFMCEYADETATIVEFLNRWITFSQSIISTLT", "OD450", 0.505]
]}
